Property: DC50; scope: individual molecules
target: BRAF V600E (Homo sapiens, UniProt P15056+Q96SW2, V600E); construct: knock-in of the HiBiT tag to the endogenous BRAF V600E locus; host or cells: A375.10 (A375 clonal line, CRISPR HiBiT knock-in at the endogenous BRAF V600E locus); experiment: BRAF V600E HiBiT Degradation Assay; assay type: cell-based; conditions: A375.10 cells, BRAF V600E, 2 hours; read-out: HiBiT-Degradation A375.10 BRAF 2 hours DC50
Sequence (P15056 whole entry V600E): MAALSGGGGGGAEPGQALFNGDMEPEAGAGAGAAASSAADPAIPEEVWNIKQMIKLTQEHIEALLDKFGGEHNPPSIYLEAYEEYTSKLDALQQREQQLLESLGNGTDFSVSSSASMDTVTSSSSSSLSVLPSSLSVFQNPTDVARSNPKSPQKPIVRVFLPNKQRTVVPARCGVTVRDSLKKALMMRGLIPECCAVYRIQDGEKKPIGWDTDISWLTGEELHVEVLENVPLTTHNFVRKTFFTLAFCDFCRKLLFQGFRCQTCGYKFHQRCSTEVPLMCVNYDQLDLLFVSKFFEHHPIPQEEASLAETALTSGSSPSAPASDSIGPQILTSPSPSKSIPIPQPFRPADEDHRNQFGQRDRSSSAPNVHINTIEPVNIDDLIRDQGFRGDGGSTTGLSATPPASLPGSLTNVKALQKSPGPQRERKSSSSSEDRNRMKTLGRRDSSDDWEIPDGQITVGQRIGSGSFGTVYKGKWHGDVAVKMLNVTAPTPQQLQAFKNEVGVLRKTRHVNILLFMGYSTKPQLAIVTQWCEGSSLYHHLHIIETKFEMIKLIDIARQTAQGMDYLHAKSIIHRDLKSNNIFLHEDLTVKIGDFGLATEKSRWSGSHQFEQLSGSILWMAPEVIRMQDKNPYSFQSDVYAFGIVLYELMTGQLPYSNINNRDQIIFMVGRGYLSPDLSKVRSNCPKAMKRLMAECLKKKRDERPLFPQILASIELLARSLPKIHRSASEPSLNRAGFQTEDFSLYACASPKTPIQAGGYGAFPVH
Sequence (Q96SW2 whole entry): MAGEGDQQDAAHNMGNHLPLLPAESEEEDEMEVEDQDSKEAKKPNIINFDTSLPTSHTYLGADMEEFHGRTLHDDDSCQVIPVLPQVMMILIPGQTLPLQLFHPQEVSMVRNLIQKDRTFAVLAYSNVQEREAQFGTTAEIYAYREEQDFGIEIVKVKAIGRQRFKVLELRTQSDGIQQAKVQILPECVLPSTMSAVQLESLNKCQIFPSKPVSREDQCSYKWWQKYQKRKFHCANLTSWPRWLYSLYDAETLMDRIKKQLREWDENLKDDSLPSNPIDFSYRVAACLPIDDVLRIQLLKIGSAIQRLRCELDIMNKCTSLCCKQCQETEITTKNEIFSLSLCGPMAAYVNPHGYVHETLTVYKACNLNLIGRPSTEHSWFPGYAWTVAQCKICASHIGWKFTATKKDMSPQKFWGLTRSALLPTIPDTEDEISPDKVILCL
Sequence (Q16531 whole entry partner): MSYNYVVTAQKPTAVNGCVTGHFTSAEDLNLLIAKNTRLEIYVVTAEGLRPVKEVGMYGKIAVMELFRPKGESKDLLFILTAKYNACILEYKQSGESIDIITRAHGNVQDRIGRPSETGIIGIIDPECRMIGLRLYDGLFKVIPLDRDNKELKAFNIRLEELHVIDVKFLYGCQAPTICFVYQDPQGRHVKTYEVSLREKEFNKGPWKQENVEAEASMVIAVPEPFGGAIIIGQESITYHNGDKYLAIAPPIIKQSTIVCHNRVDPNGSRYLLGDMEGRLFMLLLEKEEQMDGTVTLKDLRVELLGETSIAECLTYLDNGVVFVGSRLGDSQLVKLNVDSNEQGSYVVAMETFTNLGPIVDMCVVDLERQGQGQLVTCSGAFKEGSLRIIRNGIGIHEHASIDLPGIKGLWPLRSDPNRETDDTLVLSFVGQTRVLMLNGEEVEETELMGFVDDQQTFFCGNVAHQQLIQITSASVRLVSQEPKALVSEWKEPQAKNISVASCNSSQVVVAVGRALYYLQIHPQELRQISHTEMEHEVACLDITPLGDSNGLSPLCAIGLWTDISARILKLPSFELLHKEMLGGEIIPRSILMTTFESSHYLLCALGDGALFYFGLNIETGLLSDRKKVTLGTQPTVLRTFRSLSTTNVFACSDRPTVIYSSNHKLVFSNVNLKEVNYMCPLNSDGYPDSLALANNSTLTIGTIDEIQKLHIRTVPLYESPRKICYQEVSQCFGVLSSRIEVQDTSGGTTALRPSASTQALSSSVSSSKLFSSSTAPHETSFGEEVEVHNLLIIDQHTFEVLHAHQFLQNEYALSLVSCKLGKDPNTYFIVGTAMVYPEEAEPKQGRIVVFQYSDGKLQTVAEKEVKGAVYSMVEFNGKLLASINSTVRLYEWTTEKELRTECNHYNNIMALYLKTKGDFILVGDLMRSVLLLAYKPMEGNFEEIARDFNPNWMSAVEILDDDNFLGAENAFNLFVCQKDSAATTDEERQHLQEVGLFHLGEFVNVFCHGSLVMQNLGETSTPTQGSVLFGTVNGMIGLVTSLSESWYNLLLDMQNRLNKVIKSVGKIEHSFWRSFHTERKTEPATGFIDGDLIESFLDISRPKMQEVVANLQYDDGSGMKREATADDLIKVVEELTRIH
Property label: DC50

- CCN(C)S(=O)(=O)Nc1ccc(F)c(C(=O)c2ccc3ncn(C4CC5(CCN(C6CCC(c7cc8c(cc7F)c(N7CCC(=O)NC7=O)nn8C)CC6)CC5)C4)c(=O)c3c2)c1F (single isomer, unassigned) [Compound 182]: 1000 to 10000 nM
- CCN(C)S(=O)(=O)Nc1ccc(F)c(Oc2ccc3ncn(C4CC5(CCN(C6CCC(c7cc8c(cc7F)c(N7CCC(=O)NC7=O)nn8C)CC6F)CC5)C4)c(=O)c3c2)c1C#N (single isomer, unassigned) [Compound 83]: < 1000 nM
- CN(CCO)S(=O)(=O)Nc1ccc(F)c(Oc2ccc3ncn(C4CC5(CCN(C6CCC(c7cc8c(cc7F)c(N7CCC(=O)NC7=O)nn8C)CC6)CC5)C4)c(=O)c3c2)c1C#N (single isomer, unassigned) [Compound 82]: 1000 to 10000 nM
- CCN(C)S(=O)(=O)Nc1ccc(F)c(Oc2ccc3ncn([C@H]4COC5(CCN(C6CCC(c7cc8c(cc7F)c(N7CCC(=O)NC7=O)nn8C)CC6O)CC5)C4)c(=O)c3c2)c1C#N (single isomer, unassigned) [Compound 43]: < 1000 nM
- CCN(C)S(=O)(=O)Nc1ccc(F)c(Oc2ccc3ncn(C4CC5(CCN(C6CC7(C6)CN(c6cc8c(cc6F)c(N6CCC(=O)NC6=O)nn8C)C7)CC5)C4)c(=O)c3c2)c1F (stereo not drawn) [Compound 164]: < 1000 nM
- CCN(C)S(=O)(=O)Nc1ccc(F)c(Oc2ccc3ncn(C4CC5(CCN(C6CCC(c7ccc(NC8CCC(=O)NC8=O)cc7F)CC6)CC5)C4)c(=O)c3c2)c1C#N (single isomer, unassigned) [Compound 6]: < 1000 nM
- CCN(C)S(=O)(=O)Nc1ccc(F)c(Oc2ccc3ncn(C4CC5(CCN(C6CC7(C6)CN(c6cc8c(cc6F)c(N6CCC(=O)NC6=O)nn8C)C7)C5)C4)c(=O)c3c2)c1C#N (single isomer, unassigned) [Compound 301]: < 1000 nM
- CCN(C)S(=O)(=O)Nc1ccc(F)c(Oc2ccc3ncn([C@H]4CCC5(CCN(C6CCC(c7ccc(NC8CCC(=O)NC8=O)cc7F)CC6)CC5)C4)c(=O)c3c2)c1C#N (single isomer, unassigned) [Compound 24]: < 1000 nM
- CCN(C)S(=O)(=O)Nc1ccc(F)c(Oc2ccc3ncn([C@H]4COC5(CCC(N6CC[C@@H](c7ccc(NC8CCC(=O)NC8=O)cc7F)C(F)(F)C6)CC5)C4)c(=O)c3c2)c1C#N (stereo partly drawn) [Compound 189]: < 1000 nM

====

assay: Example 8 pharmacokinetics assay for PKPD study (plasma, tumor, liver); format: in vivo, BALB/c nude mice; settings: mouse, liver, po, 35 mg/kg, p.o., single dose; 6 h; read-out: Concentration in Liver (mean ± SEM)
Property label: concentration at 6 h

• COC(=O)N[C@@H](C)CNc1nccc(-c2cn(C(C)C)nc2-c2cc(Cl)cc(NS(C)(=O)=O)c2F)n1 [Encorafenib, encorafenib, reference compound] = 362 ng/g
